Test system: K4 kissing-loop RNA reporter
Experiment: apparent KD of K4 kissing-loop reporter; higher = weaker reporter binding
Details: Eterna round: R107; input ligand: FMN 200 uM
Measure: apparent KD of K4 kissing-loop reporter (µM)
Just the number in µM, nothing appended.

# count of solved cases: 10
Sequence code: CAUAGACAAGUGAUGUUUGUCAUAACCGAAGGAGCGUCGUUGAAGACAGGUAGGUCGCGGAUUAAUUAAGAUUAUAUUCUUUUUA [JR_SSArginiA_Sub019]
Measurement target: K4 kissing-loop RNA reporter
Measure: apparent KD of K4 kissing-loop reporter
Units label: µM
Assay value: 0.605
--
Sequence code: AAUAUCUAGUAUAUUUUUAAUAAAACAGAUACCAGUGAUAAUAGACACCCUUGGCAGCUGGUCGAGUGAUGUUCGUUUAUUUUAA [JR_SSTheophyA_Sub005]
Measurement target: K4 kissing-loop RNA reporter
Measure: apparent KD of K4 kissing-loop reporter
Units label: µM
Assay value: 0.0825
--
Sequence code: CAUACGCAUGGAGGAUAUGAGAUUUCUCAUAUUAUUUAAUAUUCUCAGUGAUGUUGGGAUUUAAACUCAGAAGGCCAUGUGUAUG [Ex FMN B 7]
Measurement target: K4 kissing-loop RNA reporter
Measure: apparent KD of K4 kissing-loop reporter
Units label: µM
Assay value: 0.259
--
Sequence code: CAGCCUGGUCAGUGAUGUUGGCCGCAGGGAAAGGAUAUUGUGUUGGCAAGAAGGUUCGCUUGAUCGUUGGCCCAUGCAUGGGCCU [theeternabot_sameState_KL_FMN_A_44]
Measurement target: K4 kissing-loop RNA reporter
Measure: apparent KD of K4 kissing-loop reporter
Units label: µM
Assay value: 0.186
--
Sequence code: CUCGAGUGAUGUUCGACGCGUCCGUACGAUACCAGCGUAGACCGUCGCCCUUGGCAGCGUGAUGCAGCCCGAAAGUCCGGUUCCU [theeternabot_sameState_KL_Theo_A_26]
Measurement target: K4 kissing-loop RNA reporter
Measure: apparent KD of K4 kissing-loop reporter
Units label: µM
Assay value: 1.16
--
Sequence code: UUUUUGGAGAAUUAUAGUGAUGUUAUGAAGGAGGAUAUCUAAAGAUGGAGAAGGUUUAAUAGUUAAGGGAUGGAGGGUGGGUGGG [ExFMNA.Q]
Measurement target: K4 kissing-loop RNA reporter
Measure: apparent KD of K4 kissing-loop reporter
Units label: µM
Assay value: 0.372
--
Sequence code: CCAUCGCUAUUCGAUACCAGUCAUAAAAUCUUUGGUUAAAUAAAGGAGUGAUGUUCCCAAGACCCUUGGCAGCGAAUAGUGAUGG [Theophylline B K4 7]
Measurement target: K4 kissing-loop RNA reporter
Measure: apparent KD of K4 kissing-loop reporter
Units label: µM
Assay value: 0.229
--
Sequence code: AAGGCAUUCAGAAGGAGCGUGGUUUAAUCAUUAAUAUUUUUUACGAGUGAUGUUCGUAAUUCACAGGUAGGUCGCUGAAUAAUAA [JR_ExcArginiB_Sub008]
Measurement target: K4 kissing-loop RNA reporter
Measure: apparent KD of K4 kissing-loop reporter
Units label: µM
Assay value: 0.123
--
Sequence code: AAGUGUCAUUAGACACACUGAUGUAUAAACUAGGAUAUGCUGAUAAGCAGAAGGAGUGAUGUUCCUUUCAACAUCAGAAUUAAAU [KL-XFMN-A1]
Measurement target: K4 kissing-loop RNA reporter
Measure: apparent KD of K4 kissing-loop reporter
Units label: µM
Assay value: 0.27
--
Sequence code: UCUGUUGUAUAUGAUACCAGCAGUGAGAGACAGGAAGUAUAGUGAUGUUAUAUGAGAGAAUGCCCUUGGCAGCGUGUGCGGUUGG [SSTheophylB.W]
Measurement target: K4 kissing-loop RNA reporter;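 further: bound reporter read as fluorescence of individual clusters on recovered sequencing chips by microscopy, with normalized cluster intensities fitted with a binding model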
Measure: apparent KD of K4 kissing-loop reporter
Units label: µM
Assay value: 0.191

Task: Give K4 kissing-loop RNA reporter apparent KD of K4 kissing-loop reporter for AUGCAGUGAUGUUGCUUUGUAUAAACAGAUACCAGUGAAUUUUAACACCCUUGGCAGCUGAUAGAUUCUUAAUUCUAUUAUAUAA [JR_SSTheophyA_Sub020]
Result: 0.164

Task: Query AUUAAUUUCAGAGGAUAUCGUUAUUUUUUUAAGUAUAAUCUAUUUUGCAGUGAUGUUGCUAUUAAUCGAGAAGGCUGAUUUAUAA [JR_SSFMNB_Sub020] next
Result: 0.109
